test system: HEK-293T; experiment: Multiplex assay against HEK293T; format: toxicity, cell-based; settings: human, 24 h, 10 µM, compound concentration 10 uM
Reported Population Hoechst High Intensity Objects (%) is given for each of the following molecules.
reportedMetric: Population Hoechst High Intensity Objects (%)

>>> df
                                   molecule  experimentalresult
0  Cl.c1ccc2c(c1)CCC[C@H]2Nc1nc2ccccc2[nH]1                   0
1  O=C(Nc1ccccc1Br)N[C@@H]1CCN(c2ccc(C(F)(F)F)cn2)C1 [SB-705498]                   0
2  O=C1c2c(Br)c(Br)c(Br)c(Br)c2C(=O)N1c1ncc[nH]1                   0
3  Cl.Clc1cc2cc(c1)-c1cnn3ccc(nc13)NCCOCCO2                   0
4  O=C1COc2nccc(-c3ccccc3F)c2CN1Cc1cc(C(F)(F)F)cc(C(F)(F)F)c1                   5

###

tested on: U2OS; test: Multiplex assay against U2OS; assay type: toxicity, cell-based; details: human, 48 h, 10 µM, compound concentration 10 uM
Non-standard residues stand in square brackets, D forms with d. Residues, ends and D or L forms follow the SMILES beside them.

compound	quantityUnit	Population Normal (%)
FC(F)(F)c1ccccc1-c1cc(C(F)(F)F)c2[nH]c(C3=NOC4(CCCCC4)C3)nc2c1	%	100
O=C1COc2nccc(-c3ccccc3F)c2CN1Cc1cc(C(F)(F)F)cc(C(F)(F)F)c1	%	95
COc1ccc(Cl)cc1[C@]1(F)C(=O)Nc2cc(C(F)(F)F)ccc21	%	100
O=C1c2c(Br)c(Br)c(Br)c(Br)c2C(=O)N1c1ncc[nH]1	%	100
COCCNc1cc(NC(=O)N2CCCc3cc(CN4CCOCC4=O)c(C=O)nc32)ncc1C#N	%	100
CNc1nc(NCc2ncccn2)c2c(-c3ccc4ncccc4c3)c[nH]c2n1	%	100
Cc1cc(-c2ccc3c(c2)CC[C@H]3N2CC3(CCN(C(=O)Cc4cn5cc(C)sc5n4)CC3)C2)ncn1	%	96
CCn1cnc2c(-c3ccc(F)c(-c4ccc(S(=O)(=O)CC)cc4OC)c3)cnnc21	%	100
CN(C)Cc1cccc(NC(=C2C(=O)Nc3cc(C(N)=O)ccc32)c2ccccc2)c1	%	100
COc1ccc(-n2c(C)c([N+](=O)[O-])c3ccc(O)cc32)cc1	%	100
Cc1noc(C)c1-c1cnc2c(-c3ccc(C(=O)O)cc3)cn([C@@H](C)c3ccccn3)c2c1	%	100
COCCNc1nc2ccc(C#CC3(O)CCCCC3)cc2n1-c1ccnc(N)n1	%	100
Clc1ccccc1C(c1ccccc1)(c1ccccc1)n1cccn1	%	100
CN(C)CCOc1ccc(/C(=C(/CCCO)c2ccccc2)c2ccc(O)cc2)cc1	%	100
CC(C)CC(=O)Nc1cncc(-c2ccc3[nH]nc(-c4nc5c(-c6cccc(F)c6)cncc5[nH]4)c3c2)c1	%	100
CC(C)C[C@@H]1NC(=O)[C@@H](C(C)C)NC(=O)[C@@H]2CCCN2C(=O)[C@@H](CC(=O)O)NC(=O)[C@@H](Cc2c[nH]c3ccccc23)NC1=O [BQ-123] (cyclo(L[dW][dD]P[dV]))	%	98
CC(C)C[C@H](NC(=O)c1cc2ccccc2s1)C(=O)N1CCN(C(=O)[C@H](CO)NS(=O)(=O)c2ccc(Cl)cc2Cl)CC1	%	100
C[C@H](N)COC(=O)[C@@H](CCCCN)NC(=O)Cc1c(-c2ccc3ccccc3c2)[nH]c2c1ccc1ccccc12	%	95
N[C@@]1(C(=O)O)CO[C@H]2[C@H](C(=O)O)[C@H]21	%	97

###

test system: HEK-293T; assay: Multiplex assay against HEK293T; type: toxicity, cell-based; conditions: human, 12 h, 1 µM, compound concentration 1 uM
reportedMetric: Population Hoechst High Intensity Objects (%)

                                   molecule  experimentalresult
0  Cl.Clc1cc2cc(c1)-c1cnn3ccc(nc13)NCCOCCO2                   0
1  COCCNc1nc2ccc(C#CC3(O)CCCCC3)cc2n1-c1ccnc(N)n1                   0
2  C[C@H](N)COC(=O)[C@@H](CCCCN)NC(=O)Cc1c(-c2ccc3ccccc3c2)[nH]c2c1ccc1ccccc12                   8
3  CN(C)CCOc1ccc(/C(=C(/CCCO)c2ccccc2)c2ccc(O)cc2)cc1                   0
4  COc1ccc(Cl)cc1[C@]1(F)C(=O)Nc2cc(C(F)(F)F)ccc21 [FLINDOKALNER]                   0
5  CC(C)CC(=O)Nc1cncc(-c2ccc3[nH]nc(-c4nc5c(-c6cccc(F)c6)cncc5[nH]4)c3c2)c1 [LORECIVIVINT]                   0
6  Cc1noc(C)c1-c1cnc2c(-c3ccc(C(=O)O)cc3)cn([C@@H](C)c3ccccn3)c2c1 [PLX-51107]                   0
7  COc1ccc(-n2c(C)c([N+](=O)[O-])c3ccc(O)cc32)cc1                   0
8  O=c1ccc2ccc(OCCCCN3CCN(c4cccc5sccc45)CC3)cc2[nH]1 [BREXPIPRAZOLE]                   6

###

Reported Population Fragmented Nuclei (%) is given for each of the following compounds.
test system: HEK-293T; assay: Multiplex assay against HEK293T; assay type: toxicity, cell-based; conditions: human, 24 h, 1 µM, compound concentration 1 uM

compound	Population Fragmented Nuclei (%)
CC[C@H]1OC(=O)[C@H](C)[C@@H](O[C@H]2C[C@@](C)(OC)[C@@H](O)[C@H](C)O2)[C@H](C)[C@@H](O[C@@H]2O[C@H](C)C[C@H](N(C)C)[C@H]2O)[C@@]2(C)CC(C)=C(O2)[C@H](C)[C@@H](O)[C@]1(C)O	8
Cc1sc2c(c1C)C(c1ccc(Cl)cc1)=N[C@H](CC(=O)OC(C)(C)C)c1nnc(C)n1-2	10
COc1cc(C(=O)N(CCCc2ccccc2)Cc2ccc(CC(=O)O)cc2)cc(OC)c1C	7
CCC(=O)OCC(=O)[C@@]1(OC(=O)CC)[C@@H](C)C[C@H]2[C@@H]3CCC4=CC(=O)C=C[C@]4(C)[C@@]3(Cl)[C@@H](O)C[C@@]21C [BECLOMETHASONE DIPROPIONATE]	7
CC(C)(C)c1ccc(CSc2cnn(C(C)(C)C)c(=O)c2Cl)cc1 [PYRIDABEN]	7

###

tested on: HEK-293T; test: Multiplex assay against HEK293T; format: toxicity, cell-based; conditions: human, 48 h, 1 µM, compound concentration 1 uM
reportedMetric: Population Hoechst High Intensity Objects (%)

>>> df
                       structuresmilesstring  quantityunit  experimentalresult
 0  O=C(Nc1ccccc1Br)N[C@@H]1CCN(c2ccc(C(F)(F)F)cn2)C1             %                   0
 1  CCOc1ccccc1C(=O)NCC1(N2CCN(CC)CC2)CCCCC1             %                   0
 2  CCNC1(C(N)=O)CCN(c2ncnc3c2nc(-c2ccccc2Cl)n3-c2ccc(Cl)cc2)CC1             %                   4
 3  CN(C)Cc1cccc(NC(=C2C(=O)Nc3cc(C(N)=O)ccc32)c2ccccc2)c1             %                   0
 4  CCn1cnc2c(-c3ccc(F)c(-c4ccc(S(=O)(=O)CC)cc4OC)c3)cnnc21             %                   0
 5  Cc1onc(-c2ccccc2Cl)c1C(=O)N(C)c1ccc(Cl)cc1             %                   2
 6  FC(F)(F)c1ccccc1-c1cc(C(F)(F)F)c2[nH]c(C3=NOC4(CCCCC4)C3)nc2c1             %                   0
 7  O=C(Nc1cc(C(F)(F)F)cc(C(F)(F)F)c1)c1cc(Cl)ccc1O             %                   0
 8  C[C@H](N)COC(=O)[C@@H](CCCCN)NC(=O)Cc1c(-c2ccc3ccccc3c2)[nH]c2c1ccc1ccccc12             %                   4
 9  CC(C)COc1ccc(CNC(=O)N(Cc2ccc(F)cc2)C2CCN(C)CC2)cc1             %                   5
10  COCCNc1cc(NC(=O)N2CCCc3cc(CN4CCOCC4=O)c(C=O)nc32)ncc1C#N             %                   0
11  COc1ccc(Cl)cc1[C@]1(F)C(=O)Nc2cc(C(F)(F)F)ccc21             %                   0
